Reference source for all entries: PubChem BioAssay

# protocol: E. coli DRC41 culture turbidity changes, primary screen, E. coli filamentation inducer project, strain DRC41, OD650, 48 h (AID 1152);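 note: E. coli MC1000 strain DRC41 lacking acrAB efflux pump and sulA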
# assay setup: E. coli DRC41 (acrAB sulA), higher = more signal, called active from +8 up or from −8 down
Kindly supply the reported z-score values for the records listed here.
Numbers only.

Q: Which measured z-score value corresponds to `COc1ccc(C#Cc2ccc3c(c2)[C@]2(C(=O)N3)[C@H](c3ccc(O)cc3)N3[C@H](c4ccccc4)[C@H](c4ccccc4)OC(=O)[C@H]3[C@@H]2C(N)=O)cc1` ?
Result: 1.63

Q: // next record `O=c1n(-c2ccccc2)c(=O)n2n1CC(COc1ccccc1)=C1[C@@H](CCc3ccccc3)OB(O)C[C@@H]12`
Result: 1.63

Q: // next record `[N-]=[N+]=NCc1ccccc1C[C@@]1(C(=O)O)N=C(c2ccc(OCCCO)cc2)O[C@@H]1c1ccccc1`
Result: 0.706

Q: // next record CCN(CC)c1ccc(N2CC=CC34O[C@@H]5C=CCOC(=O)[C@@H]5[C@H]3C(=O)N(C(C)CO)[C@@H]4C2=O)cc1 (some centres not stated)
Result: 1.55

Q: // next record `CC(C)(C)OC(=O)CC[C@@]1(C(=O)N2CCOCC2)N=C(c2ccc(OCCCO)cc2)O[C@@H]1c1ccccc1`
Result: 1.79

Provide reported z-score for each item, in the same order as listed.
1. NC(=O)NCC#Cc1ccc2c(c1)[C@]1(C(=O)N2)[C@H](c2ccc(OCCO)cc2)N2[C@H](c3ccccc3)[C@H](c3ccccc3)OC(=O)[C@H]2[C@@H]1C(=O)Nc1nc2ccccc2s1
2. Cc1ccc(S[C@]2(C(=O)NCCN3CCOCC3)CC(=O)N(Cc3cc(C(F)(F)F)cc(C(F)(F)F)c3)[C@@H]2c2ccc(CO)cc2)cc1

Result:
[2, 2.85]
